IC50: recorded values
- Tgt: SARS-CoV-2 nsp13 (Severe acute respiratory syndrome coronavirus 2, UniProt P0DTD1)
- Measurement description: SARS-CoV-2 nsp13 unwinding-associated activity (fluorescence, BSA-TCEP)
- Type: biochemical
- Assay setup: SARS-CoV-2 nsp13-associated unwinding activity; from dose-response curves; read-out: Activity in enzyme assay IC50 Unwinding BSA-TCEP
Property: IC50

1) O=C(/C=C(\O)C(=O)O)/C=C/c1cn(Cc2ccc(OC(F)(F)F)cc2)c2ccccc12 [5e]    6.24 µM
2) CCOC(=O)/C(O)=C/C(=O)/C=C/c1cn(S(=O)(=O)c2ccccc2)c2ccccc12 [6f]    11 µM
3) O=C(/C=C(\O)C(=O)O)/C=C/c1cn(Cc2ccc(O)cc2)c2ccccc12 [5h]    2.77 µM
4) N#Cc1ccc(Cn2cc(/C=C/C(=O)/C=C(\O)C(=O)O)c3ccccc32)cc1 [5g]    2.08 µM
5) O=C(/C=C(\O)C(=O)O)/C=C/c1cn(Cc2ccc(F)cc2)c2ccccc12 [5d]    7.63 µM
6) CCOC(=O)/C(O)=C/C(=O)/C=C/c1cn(Cc2ccc(F)cc2)c2ccc(Cl)cc12 [6i]    5.22 µM
7) C/C=C/Cn1cc(/C=C/C(=O)/C=C(\O)C(=O)O)c2ccccc21 [9a]    19.4 µM
8) CCOC(=O)/C(O)=C/C(=O)/C=C/c1cn(C=C(C)C)c2ccccc12 [10c]    19.3 µM
9) CCOC(=O)/C(O)=C/C(=O)/C=C/c1cn(Cc2ccc(C)cc2)c2ccccc12 [6b]    7.34 µM
10) C=C(C)Cn1cc(/C=C/C(=O)/C=C(\O)C(=O)O)c2ccccc21 [9b]    > 30 µM
11) C=C(C)Cn1cc(/C=C/C(=O)/C=C(\O)C(=O)OCC)c2ccccc21 [10b]    21.5 µM
12) CC(C)CCn1cc(/C=C/C(=O)/C=C(\O)C(=O)O)c2ccccc21 [9f]    15.9 µM
13) CCOC(=O)/C(O)=C/C(=O)/C=C/c1cn(Cc2ccc(C#N)cc2)c2ccccc12 [6g]    6.76 µM
14) O=C(/C=C(\O)C(=O)O)/C=C/c1cn(S(=O)(=O)c2ccccc2)c2ccccc12 [5f]    7.54 µM
15) CCOC(=O)/C(O)=C/C(=O)/C=C/c1cn(Cc2ccc(F)cc2)c2ccccc12 [6d]    3.64 µM

* * *

- Tgt: SARS-CoV-2 nsp13 (Severe acute respiratory syndrome coronavirus 2)
- Measurement description: Incubation-dependent potency of 5c on nsp13 (inhibition type)
- Type: biochemical
- Assay setup: 1 min after activation of the reaction with the substrate; read-out: IC50 at time-point
Property: IC50

1. CC(C)c1ccc(Cn2cc(/C=C/C(=O)/C=C(\O)C(=O)O)c3ccccc32)cc1    0.76 µM

* * *

- Tgt: SARS-CoV-2 nsp13 (Severe acute respiratory syndrome coronavirus 2)
- Measurement description: SARS-CoV-2 nsp13 unwinding-associated activity (fluorescence, BSA-TCEP)
- Format: biochemical
- Assay setup: Activity in enzyme assay IC50 Unwinding BSA-TCEP, SARS-CoV-2 nsp13-associated unwinding activity; from dose-response curves
Property: IC50 (µM)

1) CC(C)c1ccc(Cn2cc(C(=O)/C=C(\O)C(=O)O)c3ccccc32)cc1    14.1
2) CCOC(=O)/C(O)=C/C(=O)c1cn(Cc2ccc(OC(F)(F)F)cc2)c2ccccc12    11.3
3) Cc1ccc(Cn2cc(C(=O)/C=C(\O)C(=O)O)c3ccccc32)cc1    20.6
4) CCOC(=O)/C(O)=C/C(=O)c1cn(Cc2ccc(C)cc2)c2ccccc12    13.2
5) O=C(O)/C(O)=C/C(=O)c1cn(Cc2ccccc2)c2ccccc12    30
6) CCOC(=O)/C(O)=C/C(=O)c1cn(Cc2ccccc2)c2ccccc12    26

* * *

- Tgt: SARS-CoV-2 nsp13 (Severe acute respiratory syndrome coronavirus 2)
- Measurement description: SARS-CoV-2 nsp13 ATPase-associated activity (Biomol Green, BSA-TCEP)
- Type: biochemical
- Assay setup: SARS-CoV-2 nsp13-associated ATPase activity; from dose-response curves; read-out: Activity in enzyme assay IC50 ATPase BSA-TCEP
pIC50: −log10 of the molar value.
pIC50: recorded values
Property: pIC50

1) CCOC(=O)/C(O)=C/C(=O)/C=C/c1cn(Cc2ccc(OC)cc2)c2ccccc12    5.66
2) CC(C)CCn1cc(/C=C/C(=O)/C=C(\O)C(=O)O)c2ccccc21    4.64
3) COc1ccc(Cn2cc(/C=C/C(=O)/C=C(\O)C(=O)O)c3ccccc32)cc1    4.70
4) O=C(/C=C(\O)C(=O)O)/C=C/c1cn(Cc2ccc(F)cc2)c2ccccc12    5.00
5) CCOC(=O)/C(O)=C/C(=O)/C=C/c1cn(CC)c2ccccc12 [10d]    4.73
6) CCCCn1cc(/C=C/C(=O)/C=C(\O)C(=O)OCC)c2ccccc21 [10e]    5.24
7) CCOC(=O)/C(O)=C/C(=O)/C=C/c1cn(Cc2ccc(OC(F)(F)F)cc2)c2ccccc12    5.66
8) CCOC(=O)/C(O)=C/C(=O)/C=C/c1cn(Cc2ccc(C#N)cc2)c2ccccc12    5.20

* * *

log10(IC50): recorded values
- Tgt: SARS-CoV-2 nsp13 (Severe acute respiratory syndrome coronavirus 2, UniProt P0DTD1)
- Measurement description: SARS-CoV-2 nsp13 unwinding-associated activity (fluorescence, BSA-TCEP)
- Format: biochemical
- Assay setup: SARS-CoV-2 nsp13-associated unwinding activity; from dose-response curves; read-out: Activity in enzyme assay IC50 Unwinding BSA-TCEP
Property: log10(IC50) (log10 of the value in µM)

1) C/C=C/Cn1cc(/C=C/C(=O)/C=C(\O)C(=O)OCC)c2ccccc21 [10a]    1.12
2) CCCCn1cc(/C=C/C(=O)/C=C(\O)C(=O)OCC)c2ccccc21 [10e]    1.17
3) CCn1cc(/C=C/C(=O)/C=C(\O)C(=O)O)c2ccccc21    1.07
4) CCOC(=O)/C(O)=C/C(=O)/C=C/c1cn(Cc2ccc(OC(F)(F)F)cc2)c2ccccc12    0.75
5) CCOC(=O)/C(O)=C/C(=O)/C=C/c1cn(Cc2ccc(C(C)C)cc2)c2ccccc12    0.76
6) COc1ccc(Cn2cc(/C=C/C(=O)/C=C(\O)C(=O)O)c3ccccc32)cc1    1.02
7) CCOC(=O)/C(O)=C/C(=O)/C=C/c1cn(Cc2ccc(O)cc2)c2ccccc12    1.19
8) O=C(/C=C(\O)C(=O)O)/C=C/c1cn(Cc2ccc(F)cc2)c2ccc(Cl)cc12    -0.33
9) CC(C)=Cn1cc(/C=C/C(=O)/C=C(\O)C(=O)O)c2ccccc21    0.19

* * *

- Tgt: SARS-CoV-2 nsp13 (Severe acute respiratory syndrome coronavirus 2, UniProt P0DTD1)
- Measurement description: Incubation-dependent potency of 5c on nsp13 (inhibition type)
- Type: biochemical
- Assay setup: 15 min after activation of the reaction with the substrate; read-out: IC50 at time-point
pIC50: −log10 of the molar value.
Property: pIC50

1. CC(C)c1ccc(Cn2cc(/C=C/C(=O)/C=C(\O)C(=O)O)c3ccccc32)cc1    5.53

* * *

- Tgt: SARS-CoV-2 nsp13 (Severe acute respiratory syndrome coronavirus 2, UniProt P0DTD1)
- Measurement description: SARS-CoV-2 nsp13 ATPase-associated activity (Biomol Green, BSA-TCEP)
- Assay type: biochemical
- Assay setup: SARS-CoV-2 nsp13-associated ATPase activity; from dose-response curves; read-out: Activity in enzyme assay IC50 ATPase BSA-TCEP
pIC50: −log10 of the molar value.
Property: pIC50

1) O=C(/C=C(\O)C(=O)O)/C=C/c1cn(Cc2ccc(F)cc2)c2ccc(Cl)cc12    4.58
2) CC(C)c1ccc(Cn2cc(/C=C/C(=O)/C=C(\O)C(=O)O)c3ccccc32)cc1    5.74
3) O=C(/C=C(\O)C(=O)O)/C=C/c1cn(S(=O)(=O)c2ccccc2)c2ccccc12    5.27
4) CCOC(=O)/C(O)=C/C(=O)/C=C/c1cn(C=C(C)C)c2ccccc12 [10c]    5.31
5) CCOC(=O)/C(O)=C/C(=O)/C=C/c1cn(Cc2ccc(F)cc2)c2ccccc12    5.49

* * *

IC50: recorded values
- Tgt: SARS-CoV-2 nsp13 (Severe acute respiratory syndrome coronavirus 2, UniProt P0DTD1)
- Measurement description: SARS-CoV-2 nsp13 unwinding-associated activity (fluorescence, BSA-TCEP)
- Assay type: biochemical
- Assay setup: Activity in enzyme assay IC50 Unwinding BSA-TCEP, SARS-CoV-2 nsp13-associated unwinding activity; from dose-response curves
Property: IC50 (µM)

1) CCOC(=O)/C(O)=C/C(=O)c1cn(Cc2ccc(OC)cc2)c2ccccc12 [8a]    13.1
2) O=C(O)/C(O)=C/C(=O)c1cn(Cc2ccc(OC(F)(F)F)cc2)c2ccccc12 [7e]    22.2
3) CCOC(=O)/C(O)=C/C(=O)c1cn(Cc2ccc(C(C)C)cc2)c2ccccc12 [8c]    9.66
4) CCOC(=O)/C(O)=C/C(=O)c1cn(Cc2ccc(F)cc2)c2ccccc12 [8d]    1.73
